testSystem: 26S proteasome non-ATPase regulatory subunit 14 (Homo sapiens)
Sequence (O00487 whole entry): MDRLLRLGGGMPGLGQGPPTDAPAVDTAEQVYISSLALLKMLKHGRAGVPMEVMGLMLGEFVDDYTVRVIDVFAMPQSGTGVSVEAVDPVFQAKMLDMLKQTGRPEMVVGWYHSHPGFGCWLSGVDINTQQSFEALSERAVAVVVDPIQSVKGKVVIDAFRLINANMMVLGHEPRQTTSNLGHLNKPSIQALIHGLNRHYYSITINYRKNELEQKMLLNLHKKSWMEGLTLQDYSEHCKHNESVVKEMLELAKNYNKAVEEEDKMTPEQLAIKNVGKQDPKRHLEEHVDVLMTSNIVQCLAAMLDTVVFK
protocolDescription: inhibition of proteasome subunit RPN11 – biochemical, fluorescence polarization, uHTS hits, confirmation (AID 602368)
pIC50: −log10 of the molar value.
readoutLabel: pIC50

In [3]: df
Out[3]:
                                    compound  readoutlabel  inequalitysymbol  measurement
 0  COc1cc(C=CC(=O)C2C(=O)NC(=O)N(CCc3ccccc3)C2=O)ccc1O (stereo not given) [SMR000221203]         pIC50                 =         4.53
 1  O=[N+]([O-])c1ccc(N=NCc2c[nH]c3ccccc23)cc1 [MLS000573812]         pIC50                 =         5.75
 2  Cc1cc(=O)[nH]c(N=NCc2c(O)n(-c3ccccc3)c(=O)c3ccccc23)n1 [SMR000221270]         pIC50                 =         4.74
 3  O=C1C=CC([N+](=O)[O-])=CC1C=NN=C1NS(=O)(=O)c2ccccc21 (stereo not given)         pIC50                 =         4.46
 4  COC1=CC([N+](=O)[O-])=CC(/C=N/NC(=O)c2cncc(Br)c2)C1=O (stereo not given)         pIC50                 =         4.31
 5  Cc1[nH]n(-c2ccccc2)c(=O)c1C=C1NC(=S)NC1=O         pIC50                 =         4.49
 6  COC1=CC([N+](=O)[O-])=CC(/C=N/NC(=O)c2cc(-c3ccccc3)nc3ccccc23)C1=O (stereo not given)         pIC50                 =         4.65
 7  O=C1N=C(Nc2ccc(Cl)cc2Cl)SC1=Cc1c[nH]c2ccccc12         pIC50                 =         4.44
 8                CC(c1sc(S)nc1O)c1sc(S)nc1O         pIC50                 =         4.34
 9  Cc1[nH]c2ccccc2c1/C=C1\N=C(c2ccccc2)OC1=O         pIC50                 =         5.38
10  O=[N+]([O-])c1ccc(N=NCc2ccc[nH]2)cc1 [MLS000595102]         pIC50                 =         5.05
11  CN(CCO)c1ccc(CN=Nc2ccc([N+](=O)[O-])cc2S(=O)(=O)Nc2ccccc2C(=O)O)cc1         pIC50                 =         4.43
12  C=c1[nH]c2ccc(C)cc2c1=Cc1c(N)n2oc(C)cc2nc1=O [MLS000730959]         pIC50                 =         4.48
13  CC1=NC(=O)NC(c2ccc(N3CCOCC3)cc2)C1C(=O)c1ccccc1 (stereo not given)         pIC50                 =         4.77
14  O=[N+]([O-])c1ccc(N=NCc2cccn2-c2ccccc2)nc1 [SMR000161089]         pIC50                 =         4.63
15  CCN(CC)CCOC(=O)c1ccc(N=CC(C#N)c2nc(-c3ccc(OC)c(OC)c3)cs2)cc1 (stereo not given) [SMR000434079]         pIC50                 =         4.63
16  O=C(N/N=C/C1C=C([N+](=O)[O-])C=CC1=O)c1cc(-c2ccccc2)nc2ccccc12 (stereo not given)         pIC50                 =         4.83
17                Oc1csc(=S)n1N=Cc1ccc(Cl)s1         pIC50                 =         4.23
18  CCCCCCCCCCCC1N=C(N)N=C(CCCO)C1C(=O)OC (stereo not given) [SMR001565729]         pIC50                 =         4.70
19        CSc1nsc(CC=Nc2ccc(C(=O)O)cc2)c1C#N         pIC50                 =         4.61
20  CCN(CC)CCOC(=O)c1ccc(N=CC(C#N)c2nc(-c3ccc4c(c3)OCO4)cs2)cc1 (stereo not given)         pIC50                 =         4.50
21  COC1=CC(=Cc2c(C)[nH]n(-c3cccc(Br)c3)c2=O)C=C(OC)C1=O         pIC50                 =         4.64
22  NS(=O)(=O)c1ccc(N=CCC(=O)c2ccc3ccccc3c2)cc1         pIC50                 =         4.54
23      CC[n+]1c(CC=Nc2ccccc2)oc2ccc(OC)cc21         pIC50                 =         4.63
24  CC(=O)C1C(=O)OC(=CC=Cc2ccccc2)C1=O (stereo not given)         pIC50                 =         4.45
25  O=C(N/N=C/C1C=C(Cl)C=C([N+](=O)[O-])C1=O)c1ccccc1NS(=O)(=O)c1cccs1 (stereo not given) [SMR000364876]         pIC50                 =         4.98
26  COc1cc(C=c2[nH]c3n(c2=O)CCCCC=3)ccc1O [SMR000149996]         pIC50                 =         4.83
27  O=C1c2ccccc2SC1/C=N/c1cc([N+](=O)[O-])ccc1O (stereo not given)         pIC50                 =         5.48
28  C=CCN1C(=O)C(/C=N/c2cccc([N+](=O)[O-])c2)C(=O)N(CCCC)C1=O (stereo not given) [MLS000543529]         pIC50                 =         4.47
29  C=c1[nH]n(-c2nnc(C)c(=O)[nH]2)c(=O)c1=Cc1ccc(N(CC)CC)cc1         pIC50                 =         4.31
30  O=c1c(Cl)c(N=NCc2ccc(Br)cc2)cnn1-c1ccccc1         pIC50                 =         4.67
31  C=C(C=C(C)c1sc(S)nc1O)c1sc(S)nc1O [MLS000723803]         pIC50                 =         4.36
32  COc1cc2c3c(c1)C(C)=CC(C)(C)N3C(=O)C2=O [MLS000688351]         pIC50                 =         5.08
33  CC1(C)CC(=O)C(=CNCC2CCN(C(=O)Cc3ccccc3)CC2)C(=O)C1         pIC50                 <         4.00
34  CCOC(=O)C1C(=O)C(=Cc2ccc(-c3ccccc3C(=O)O)o2)SC1=Nc1ccc(OC)cc1 (stereo not given)         pIC50                 =         4.75
